B1: COUP transcription factor 1, residues 83 to 159; numbered along this chain, P10589 (parent)
chain: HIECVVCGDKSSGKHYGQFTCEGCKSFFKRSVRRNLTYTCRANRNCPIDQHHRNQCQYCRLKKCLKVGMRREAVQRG

Variants of: B1
Test: abundance fitness (aPCA) (normalised: wild type 0, dead -1); higher = more abundant; growth selection in yeast, the domain comes from the species named
Details: Homo sapiens
Measured abundance fitness, listed per entry for reference.
Give the value as a plain number.

Study these solved cases before continuing.
| MUTANT | abundance fitness |
| --- | --- |
| C56V | -0.758 |
| F27W | -0.733 |

Give me measured abundance fitness, please, for this variant: "Q75A"
0.125

Write down abundance fitness measured for item "Q50T"
-0.076

Let me know recorded abundance fitness for "I48S" , thanks.
-0.286

Annotate the variant "V32D" with its measured abundance fitness.
-0.265

Return the recorded abundance fitness value; entry: "Q57W"
0.156

Attribution: the Human Domainome abundance scans (Beltran et al. 2025)
